# ASSAY_EXPLANATION: NCI Yeast Anticancer Drug Screen. Data for the rad18 strain (AID 177)
# CONDITION: S. cerevisiae rad18 mutant growth inhibition; at 11.0 µM; active compounds read high
The panel holds about 79,000 compounds, 15% with a hit somewhere; the sample as a whole holds those more often. Starred links: 1 amine or outer side, 2 acyl side, 3 side chain; linkers in the order of their positions; H or OH if unused. Positions of bridges follow the written chain, without caps; N, C: chain ends. Non-standard residues stand in square brackets, D forms with d. Residues, ends and D or L forms follow the SMILES beside them. Chains are numbered I, II in the order given. Actinocin(9to1) = Cc1c2oc3c(C)ccc(C(=O)[*:1])c3nc-2c(C(=O)[*:2])c(N)c1=O; aThr = C[C@H](O)[C@H](N)C(=O)O; NMeV = CN[C@H](C(=O)O)C(C)C; Sar = CNCC(=O)O
In this section we review reported growth inhibition values for a set of compounds.

{"COMPOUND": "Nc1nc(Nc2ccccc2)nc(Nc2ccccc2)n1", "growth inhibition (%)": 2}
{"COMPOUND": "CCCCCCCCCCCCOC1C(COCCN2CCCC2)OC2OC(C)(C)OC21 (stereo not drawn)", "growth inhibition (%)": 97}
{"COMPOUND": "N#C/C(=C1C=C/C(=N\\O)C(Cl)=C\\1)c1ccccc1", "growth inhibition (%)": -2}
{"COMPOUND": "Clc1ccc(C(c2ccc(Cl)cc2)N2CCNCC2)cc1", "growth inhibition (%)": 4}
{"COMPOUND": "CCC(C)C(=O)OCC(=O)c1ccc(-c2ccccc2)cc1 (stereo not drawn)", "growth inhibition (%)": 1}
{"COMPOUND": "O=C1C=CC(=O)N1c1ccc(Br)cc1Cl", "growth inhibition (%)": 99}
{"COMPOUND": "Cc1c2oc3c(C)ccc(C(=O)N[C@@H]4C(=O)N[C@H](C(C)C)C(=O)N5CCC[C@H]5C(=O)N(C)CC(=O)N(C)[C@@H](C(C)C)C(=O)O[C@H]4C)c3nc-2c(C(=O)N[C@@H]2C(=O)N[C@H](C(C)C)C(=O)N3CCC[C@H]3C(=O)N(C)CC(=O)N(C)[C@@H](C(C)C)C(=O)O[C@H]2C)c(N)c1=O (I: [aThr][dV]P[Sar][NMeV] / II: [aThr][dV]P[Sar][NMeV]; ester I:1-I:C, II:1-II:C; linker I:N-II:N via Actinocin(9to1))", "growth inhibition (%)": 92}
{"COMPOUND": "CC(=O)CC[N+](C)(C)C", "growth inhibition (%)": 14}

====

# ASSAY_EXPLANATION: NCI Yeast Anticancer Drug Screen. Data for the rad50EPP+ strain (AID 151);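 note: 0% = growth of vehicle-treated control cultures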
# CONDITION: S. cerevisiae rad50 mutant strain, at 11.0 µM, active compounds read high
About 79,000 compounds went through this panel and 15% of them were active in at least one assay; those are over-represented in the sample as a whole.
OBSERVED_PROPERTY: growth inhibition (%)

{"COMPOUND": "CCC1SC(=S)N(c2ccc(Cl)cc2)C1=O (stereo unspecified)", "RECORDED_VALUE": 42}
{"COMPOUND": "O=S(=O)(Oc1c(Cl)cc(Cl)cc1Cl)c1ccccc1", "RECORDED_VALUE": 37}
{"COMPOUND": "CCOC(=O)c1[nH]c2cccc3c2c1CC(Br)C3=O (stereo unspecified)", "RECORDED_VALUE": -12}
{"COMPOUND": "O=Cn1c2ccccc2c2ccccc21", "RECORDED_VALUE": 0}
{"COMPOUND": "O=C1c2ccccc2C(=O)C1C(c1ccc(F)cc1)C1C(=O)c2ccccc2C1=O", "RECORDED_VALUE": 21}
{"COMPOUND": "CCOC(=O)c1sc2[n+](c1C)C(=O)/C(=C/c1cc(OC)c(OC)c(OC)c1)S2", "RECORDED_VALUE": 19}
